# credit: patent US8969573B2

# Measured Target: eIF4E/eIF4G interaction (Homo sapiens, UniProt P06730)
# Sequence (P06730 whole entry): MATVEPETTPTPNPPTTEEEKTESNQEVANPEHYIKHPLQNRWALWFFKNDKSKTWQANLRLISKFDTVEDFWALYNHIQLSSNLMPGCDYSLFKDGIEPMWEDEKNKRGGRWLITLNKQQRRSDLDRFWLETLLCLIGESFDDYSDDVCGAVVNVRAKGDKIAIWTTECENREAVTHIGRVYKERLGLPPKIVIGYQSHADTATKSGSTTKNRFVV
# Assay Overview: Fluorescent polarization assay
# Format: binding
# Condition: FITC eIF4G peptide and recombinant eIF4E, ratio to Z (4EGI-1 = 1)
Attribute Measured: Fp (ratio to Z)
API note: the answer field is a bare number with no unit suffix.

## Task Return Fp (ratio to Z) (reported value) for this compound: COCc1cn(-c2ccc(-c3sc(NN=C(Cc4ccccc4[N+](=O)[O-])C(=O)O)nc3-c3ccc(OC)cc3)cc2)nn1 [KY-443A16-19]
## Result 1

## Task Return Fp (ratio to Z) (reported value) for this compound: O=C(O)/C(Cc1ccc([N+](=O)[O-])cc1)=N\Nc1nc(-c2ccc(Cl)c(Cl)c2)cs1 [KY-755-p]
## Result 1

## Task Return Fp (ratio to Z) (reported value) for this compound: [N-]=[N+]=Nc1ccc(-c2csc(NN=C(Cc3ccccc3[N+](=O)[O-])C(=O)O)n2)cc1 [KH-8]
## Result 0.99

## Task Return Fp (ratio to Z) (reported value) for this compound: COc1ccc(-c2sc(N/N=C(/Cc3ccccc3[N+](=O)[O-])C(=O)O)nc2-c2ccc(-c3ccccc3)cc2)cc1 [KY-577SF]
## Result 1

## Task Return Fp (ratio to Z) (reported value) for this compound: COc1ccc(-c2cn(-c3ccc(-c4sc(NN=C(Cc5ccccc5[N+](=O)[O-])C(=O)O)nc4-c4ccc(OC)cc4)cc3)nn2)cc1 [KY-445]
## Result 1

----------
# Measured Target: eIF4E/eIF4G interaction (Homo sapiens)
# Assay Overview: Fluorescent polarization assay
# Format: binding
# Condition: FITC eIF4G peptide and recombinant eIF4E, ratio to Z (4EGI-1 = 1)
Decide by Fp (ratio to Z): equal to or exceeding 1 means Y, less means N.

## Task # bool: Fp (ratio to Z) of N.O=C(O)/C(Cn1cc(-c2ccccn2)nn1)=N/Nc1nc(-c2ccc(Cl)c(Cl)c2)cs1 [KY-767] >= 1
## Result N

## Task # bool: Fp (ratio to Z) of [N-]=[N+]=NCCCCCOc1ccc(-c2csc(N/N=C(/Cc3ccccc3[N+](=O)[O-])C(=O)O)n2)cc1 [KH-168S] >= 1
## Result Y

## Task # bool: Fp (ratio to Z) of O=C(O)/C(Cc1c[nH]c2ccccc12)=N\Nc1nc(-c2ccc(Cl)c(Cl)c2)cs1 [KY-753] >= 1
## Result N

## Task # bool: Fp (ratio to Z) of O=C(O)C(Cc1ccccc1[N+](=O)[O-])=NNc1nc(-c2ccc(OCCCOc3ccc(Cl)cc3)cc2)cs1 [KH-332S] >= 1
## Result Y

## Task # bool: Fp (ratio to Z) of [N-]=[N+]=NCCOc1ccc(-c2csc(N/N=C(/Cc3ccccc3[N+](=O)[O-])C(=O)O)n2)cc1 [KH-166] >= 1
## Result N

## Task # bool: Fp (ratio to Z) of COc1ccc(-c2nc(N/N=C(\Cc3ccccc3[N+](=O)[O-])C(=O)O)sc2-c2ccc(I)cc2)cc1 [KY-613S] >= 1
## Result Y

----------
Assign Fp (ratio to Z) to each entry below.
# Measured Target: eIF4E/eIF4G interaction (Homo sapiens, UniProt P06730)
# Assay Overview: Fluorescent polarization assay
# Assay type: binding
# Condition: FITC eIF4G peptide and recombinant eIF4E, ratio to Z (4EGI-1 = 1)

## Task Report Fp (ratio to Z) under test system eIF4E/eIF4G interaction (Homo sapiens, UniProt P06730) for COc1ccc(-c2nc(N/N=C(/Cc3ccccc3[N+](=O)[O-])C(=O)O)sc2-c2cccc(-n3cc(CO)nn3)c2)cc1 [KY-467S] .
## Result 0.85

## Task Report Fp (ratio to Z) under test system eIF4E/eIF4G interaction (Homo sapiens, UniProt P06730) for COc1ccc(-c2sc(N/N=C(/Cc3ccccc3[N+](=O)[O-])C(=O)O)nc2-c2ccc(C3CCCCC3)cc2)cc1 [KY-612SF] .
## Result 1

## Task Report Fp (ratio to Z) under test system eIF4E/eIF4G interaction (Homo sapiens, UniProt P06730) for O=C(O)c1nn(-c2nc(-c3ccc(Cl)c(Cl)c3)cs2)c2ccc([N+](=O)[O-])cc12 .
## Result 1.3

## Task Report Fp (ratio to Z) under test system eIF4E/eIF4G interaction (Homo sapiens, UniProt P06730) for COc1ccc(-c2sc(N/N=C(\Cc3ccccc3[N+](=O)[O-])C(=O)O)nc2-c2ccc(SC)cc2)cc1 .
## Result 0.62

## Task Report Fp (ratio to Z) under test system eIF4E/eIF4G interaction (Homo sapiens, UniProt P06730) for Cc1ccc(-c2nc(NN=C(Cc3ccccc3[N+](=O)[O-])C(=O)O)sc2-c2ccc(Cl)cc2)cc1 [KY-351PR] .
## Result 1.1

## Task Report Fp (ratio to Z) under test system eIF4E/eIF4G interaction (Homo sapiens, UniProt P06730) for COc1cc(-c2nc(NN=C(Cc3ccccc3[N+](=O)[O-])C(=O)O)sc2-c2ccc(Cl)c(Cl)c2)cc(OC)c1OC [KY-369S] .
## Result 0.75

## Task Report Fp (ratio to Z) under test system eIF4E/eIF4G interaction (Homo sapiens, UniProt P06730) for COc1ccc(-c2nc(NN=C(Cc3ccccc3[N+](=O)[O-])C(=O)O)sc2-c2ccc(-n3cc(-c4cccc(O)c4)nn3)cc2)cc1 .
## Result 1.2

## Task Report Fp (ratio to Z) under test system eIF4E/eIF4G interaction (Homo sapiens, UniProt P06730) for COc1ccc(-c2nc(N/N=C(\Cc3ccccc3[N+](=O)[O-])C(=O)O)sc2-c2ccc(-c3ccccc3)cc2)cc1 [KY-435-F] .
## Result 0.5

## Task Report Fp (ratio to Z) under test system eIF4E/eIF4G interaction (Homo sapiens, UniProt P06730) for COc1ccc(-c2sc(NN=C(Cc3ccccc3[N+](=O)[O-])C(=O)O)nc2-c2ccc(OC)c(OC)c2)cc1 [KY-343PR] .
## Result 1
